Known Kd of a selection of binders
- Target Under Test: T1, human SIRPβ1v1, extracellular domain, Avi-FXa-Fc tag (human, biotinylated)
- T1 construct: also called huSIRPβ1v1
- T1 sequence (chain, as listed by the source limits assumed): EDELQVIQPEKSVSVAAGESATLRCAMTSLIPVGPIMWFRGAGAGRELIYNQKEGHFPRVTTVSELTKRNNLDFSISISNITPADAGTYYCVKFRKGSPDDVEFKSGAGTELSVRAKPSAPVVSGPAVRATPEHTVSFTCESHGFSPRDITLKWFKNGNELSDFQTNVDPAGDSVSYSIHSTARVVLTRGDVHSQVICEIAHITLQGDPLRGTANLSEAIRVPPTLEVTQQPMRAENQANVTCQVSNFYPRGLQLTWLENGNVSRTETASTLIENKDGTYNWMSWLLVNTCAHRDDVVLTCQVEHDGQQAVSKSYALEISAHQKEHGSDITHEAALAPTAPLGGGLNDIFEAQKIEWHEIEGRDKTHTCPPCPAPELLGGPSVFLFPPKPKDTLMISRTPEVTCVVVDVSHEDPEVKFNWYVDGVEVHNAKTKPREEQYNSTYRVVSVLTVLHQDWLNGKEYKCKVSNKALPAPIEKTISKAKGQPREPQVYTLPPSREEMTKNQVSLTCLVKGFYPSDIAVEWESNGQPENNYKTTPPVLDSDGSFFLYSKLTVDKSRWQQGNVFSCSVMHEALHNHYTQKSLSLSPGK
- Method: SPR, captured biotinylated antigen
Answer format: numeric, nM implied, no suffix.

Look over these answered cases.
# Binder, Measure, Experimental Result
measured = [
    ("humanized anti-SIRPα antibody 8 (antibody, human IgG1, kappa, L234A L235A, V domains shown, human IgG1 LALA, kappa; also called mAb 8) VH: RQLVESGGGLVQPGGSLRLSCAASGFSLSSHGISWVRQAPGKGLEYIGTIGTGVITYYASWAKGRFTGSKTSSTAYLQMTSLRAEDTAVYYCARGSAWNDPFDYWGQGTLVTVSS VL: DIVMTQSPSSLSASVGDRVTITCQASQSVYGNNDLAWYQQKPGQAPKLLIYLASTLATGVPSRFSGSGSGTDFTLTISSLQPEDFATYYCLGGGDDEADNTFGQGTKVEIKR", "Kd", 0.661),
    ("humanized anti-SIRPα antibody 11 (antibody, human IgG1, kappa, L234A L235A, V domains shown, human IgG1 LALA, kappa; also called mAb 11) VH: RQLVESGGGLVQPGGSLRLSCAASGFSLSSHGISWVRQAPGKGLEWVGTIGTGVITYYASWAKGRFTGSKTSSTAYLQMTSLRAEDTAVYYCARGSAWNDPFDYWGQGTLVTVSS VL: DIEMTQSPSSVSASVGDRVTLTCQASQSVYGNNDLAWYQQKPGQAPKLLIYLASTLATGVPSRFSGSGSGTDFTLTISSLQPEDFATYYCLGGGDDEADNVFGGGTKVEIKR", "Kd", 2.01),
]

# next binder below
Task: Kd for humanized anti-SIRPα antibody 6 (antibody, human IgG1, kappa, L234A L235A, V domains shown, human IgG1 LALA, kappa; also called mAb 6) VH: RQLVESGGGLVQPGGSLRLSCTASGFSLSSHGISWVRQAPGKGLEYIGTIGTGVITYFASWAKGRFTGSKTSSTAYMELSSLRSEDTAVYFCARGSAWNDPFDPWGQGTLVTVSS VL: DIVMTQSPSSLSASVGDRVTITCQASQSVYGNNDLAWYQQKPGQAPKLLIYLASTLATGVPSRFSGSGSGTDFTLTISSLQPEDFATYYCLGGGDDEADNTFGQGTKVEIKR ?
Result: 0.0743
